target_of_assay: T1, recombinant human TfR1 (transferrin receptor 1) (human, UniProt P02786 89-760)
T1 construct: Bought recombinant His-tagged protein; also called hTfR1
experiment: phage ELISA
endpoint: binding result

SEQ ID NO 33 (VNAR clone displayed on phage) (VNAR, shark VNAR domain on M13 phage; coat-protein fusion not described) VNAR: ARVDQTPQTITKETGESLTINCVLRDSNCDLSRTYWYRKKQGSTNEESISKGGRYVETVNSGSKSFSLRINDLTVEDSGTYRCNVALYHFTGCSRVQDVYGGGTVVTVNA :: binds
SEQ ID NO 18 (VNAR clone displayed on phage) (VNAR, shark VNAR domain on M13 phage; coat-protein fusion not described) VNAR: ARVDQTPQTITKETGESLTINCVLRDSNCALPSTYWYRKKSGSTNEESISKGGRYVETVNSGSKSFSLRINDLTVKDSGTYRCNVQHIFQHNCYWFLYDVYGGGTAVTVNA :: binds
SEQ ID NO 20 (VNAR clone displayed on phage) (VNAR, shark VNAR domain on M13 phage; coat-protein fusion not described) VNAR: ARVDQTPQTITKETGESLTINCVLRDSNCALPSTYWYRKKSGSTNEESISKGGRYVETVNSGSKSFSLRINDLTVEDSGTYRCNVYTSYCCSVADVYGGGTAVTVNA :: binds
SEQ ID NO 13 (VNAR clone displayed on phage) (VNAR, shark VNAR domain on M13 phage; coat-protein fusion not described) VNAR: ARVDQTPQTITKETGESLTINCVLRDSNCALPSTYRYRKKSGSTNEESISKGGRYVETVNSGSKSFSLRINDLTVEDSGTYRCKVTMVRGRGCYQPARGQDVYGGGTAVTVNA :: binds
